B1: RAD51 (parent)
chain: RFLRMLLRLADEFGVAVVITNQVV

# Variants of: B1
# ASSAY_REMARKS: protein stability index of a GFP-peptide fusion (GPS, HEK-293T) (PSI 1-6); higher = more stable;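 note: lentivirally expressed fusions sorted by FACS into six bins by GFP to DsRed ratio, PSI derived from sequencing read proportions per bin multiplied by bin number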
# SETTINGS: c terminus: a fixed tail appended
Would you mind telling me the reported protein stability index of each entry?
Lab note: record the figure alone, no unit after it.

q: # lookup: protein stability index of I19S
a: 1.95

q: What would you report for A10R ?
a: 1.65

q: Another variant: L9T
a: 2.51

q: F2T , same question.
a: 3.18

q: Then what about the variant R1H ?
a: 1.78

q: Try this variant next: R1V
a: 1.52

q: Next: F13Q
a: 1.61

q: Now consider L3G and answer again.
a: 2.62

q: Ok, now G14V
a: 2.18

q: What would you report for R8S ?
a: 2.96

q: Another variant to check: V15S
a: 3.16

q: Cool, now V23P
a: 2.23

q: Entry T20W please
a: 3.05

q: Now the same for N21E
a: 1.08

q: Ok, now F13E
a: 2.74

q: Try this variant next: V15F
a: 2.82

q: How about R8Q ?
a: 2.09

q: And G14R ?
a: 2.06

q: Same again, this time with R1C
a: 2.23

q: Here is the next variant: R4A
a: 2.24

q: Thanks! And V17A ?
a: 1.67

q: What about V15L ?
a: 2.06
